# System: Acinetobacter baumannii ATCC17961
# assay.details: Antimicrobial susceptibility testing: 90% growth inhibitory concentration (IC90) determination in Iso-Sensitest broth, OD600 growth
# Format: cell-based
# experimental.parameters: Acinetobacter baumannii, ATCC17961, 16 h, strain ATCC 17961, OD600 growth over 16 h, read-out: A. baumannii ATCC 17961 IC90
# Protocol: Antimicrobial Susceptibility Testing: 90% Growth Inhibitory Concentration (IC90) Determination The in vitro antimicrobial activity of the compounds was determined according to the following procedure: The assay used a 10-points Iso-Sensitest broth medium to measure quantitatively the in vitro activity of the compounds against Acinetobacter baumannii ATCC17961 or ATCC17968. […]
Counter-ions that a name gives are not always drawn.
Quick reference for log10 of IC90 among some compounds
readout.type: log10 of IC90 (log10 of the value in nM)

>>> assay_result("NC12CC(NC(=O)c3ccc(Nc4nccn5c(-c6cn(CC(F)F)nc6C(F)(F)F)cnc45)cc3Cl)(C1)C2")
2.56
>>> assay_result("CCc1cc(Nc2nccn3c(-c4cn(CC#N)nc4SC)cnc23)ccc1C(=O)NCCOCCN")
2.51
>>> assay_result("CCc1cc(Nc2nccn3c(-c4c[nH]nc4C(F)(F)F)cnc23)ccc1C(=O)NCCOC[C@H](C)N")
2.01
>>> assay_result("Cc1cc(Nc2nccn3c(-c4c[nH]nc4C(F)(F)F)cnc23)ccc1C(=O)N1CCN(C(=O)[C@@H]2CCNC2)CC1")
2.71
>>> assay_result("Cc1cc(Nc2nccn3c(-c4c[nH]nc4C(F)(F)F)cnc23)ccc1C(=O)N1CCN(C(=O)NCC2CNC2)CC1")
3.15
>>> assay_result("CCNC(=O)c1ccc(Nc2nccn3c(-c4c[nH]nc4C(F)(F)F)cnc23)cc1CC")
2.71
>>> assay_result("O=C(N[C@@H]1CCN(C(=O)[C@@H]2C[C@@H](O)CN2)C1)c1ccc(Nc2nccn3c(-c4c[nH]nc4C(F)(F)F)cnc23)cc1Cl")
2.72
>>> assay_result("O=C(NC1CN(C(=O)c2ccc(Nc3nccn4c(-c5c[nH]nc5C(F)(F)F)cnc34)cc2Cl)C1)N[C@@H]1CCNC1")
2.57
>>> assay_result("N#CCn1cc(-c2cnc3c(Nc4ccc(C(=O)N5CCC(N)CC5)c(Cl)c4)nccn23)c(C(F)(F)F)n1")
2.04
>>> assay_result("N#CCn1cc(-c2cnc3c(Nc4ccc(C(=O)NCC(=O)N5CC[C@H](N)C5)c(Cl)c4)nccn23)c(C(F)(F)F)n1")
2.42
>>> assay_result("Cc1cc(Nc2nccn3c(-c4c[nH]nc4C(F)(F)F)cnc23)ccc1C(=O)N1CCN(C(=O)[C@H](C)N)CC1")
2.60
>>> assay_result("CCc1cc(Nc2nccn3c(-c4cn(CC(F)F)nc4C(F)(F)F)cnc23)ccc1C(=O)NCCCNC(=O)[C@H]1C[C@@H](N)C1")
2.39
>>> assay_result("O=C(c1ccc(Nc2nccn3c(-c4cn(CC(F)F)nc4C(F)(F)F)cnc23)cc1Cl)N1CCN(C(=O)[C@H]2[C@@H]3CNC[C@@H]32)CC1")
2.17
>>> assay_result("CCc1cc(Nc2nccn3c(-c4cn(CC(F)F)nc4C(F)(F)F)cnc23)ccc1C(=O)NCCNC(=O)[C@@H]1CC[C@H](N)C1 [Example 497, formate]")
2.26
>>> assay_result("Cc1cc(Nc2nccn3c(-c4cn(CC#N)nc4C(F)(F)F)cnc23)ccc1C(=O)NCC(=O)N1CCNCC1")
2.60
>>> assay_result("O=C(c1ccc(Nc2nccn3c(-c4c[nH]nc4C(F)(F)F)cnc23)cc1Cl)N1CCN(C(=O)[C@H]2CCCN2)CC1")
2.33
>>> assay_result("CCc1cc(Nc2nccn3c(-c4cn(CC#N)nc4C(F)(F)F)cnc23)ccc1C(=O)NCC#N")
2.13
>>> assay_result("C=CCn1cc(-c2cnc3c(Nc4ccc(C(=O)N5CCN(C(=O)C6CCNCC6)CC5)c(CC)c4)nccn23)c(C(F)(F)F)n1")
2.49
>>> assay_result("CCc1cc(Nc2nccn3c(-c4c[nH]nc4C(F)(F)F)cnc23)ccc1C(=O)N[C@H](C)CNC(=O)[C@@H]1CCCN1")
2.86
>>> assay_result("NCCC(=O)NCCNC(=O)c1ccc(Nc2nccn3c(-c4c[nH]nc4C(F)(F)F)cnc23)cc1Cl")
2.84
>>> assay_result("CCc1cc(Nc2nccn3c(-c4cn(CC(F)F)nc4C(F)(F)F)cnc23)ccc1C(=O)NCCOC[C@H](C)N")
2.49
>>> assay_result("CCc1cc(Nc2nccn3c(-c4c[nH]nc4C(F)(F)F)cnc23)ccc1C(=O)NCCC1(N)CC1")
3.39
>>> assay_result("NCCCC(=O)NCCNC(=O)c1ccc(Nc2nccn3c(-c4c[nH]nc4C(F)(F)F)cnc23)cc1Cl")
2.96
>>> assay_result("CCc1cc(Nc2nccn3c(-c4cn(CC#N)nc4C(F)(F)F)cnc23)ccc1C(=O)NCC(=O)N1CCNCC1 [Example 499, formate]")
2.34
>>> assay_result("Cc1cc(Nc2nccn3c(-c4cn(CC(F)F)nc4C(F)(F)F)cnc23)cc(F)c1C(=O)N1CCN(C(=O)[C@H](C)N)CC1")
2.46
>>> assay_result("Cc1cc(Nc2nccn3c(-c4c[nH]nc4C(F)(F)F)cnc23)ccc1C(=O)N1CCN(C(=O)[C@@H]2CNCC[C@H]2O)CC1 (racemic) [Example 467, hydrochloride]")
3.15
>>> assay_result("CCc1cc(Nc2nccn3c(-c4cn(CC#N)nc4C(F)(F)F)cnc23)ccc1C(=O)NCCNC(=O)C1CCNCC1 [Example 486, formate]")
2.32

# credit: patent US20230203043A1
